Assay: Cell Viability - LYMP2-019 (AID 973);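 also: cells exposed to compound for 24 h at 37 °C; nearly all actives have a fitted effect of over 55% in size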
Conditions: LYMP2-019 lymphoblastoid cell line viability; series mostly up to 92.2 µM
Inconclusive results are not listed. Active and inactive are the calls of the source. Calls follow the shape of the dose curve; as a rule, active = well fitted cell-killing curve with a large enough effect; inconclusive = small, poorly fitted or top-dose-only effect; inactive = flat fitted curve, though single readings scatter.
Outcome codes: True (active), False (inactive)

# compound, class assignment
data = [
    ("N=C1C=CC(=C(c2ccc(N)cc2)c2ccc(N)cc2)C=C1", "True"),
    ("CCOC(=O)C1OC1c1ccccc1 (stereo not drawn)", "False"),
    ("Nc1cc(C(=O)O)c(O)c(S(=O)(=O)O)c1", "False"),
    ("CC(=O)OC1CC(C)OC(C)O1 (stereo not drawn)", "False"),
    ("Oc1c(Cl)cc(Cl)c(Cl)c1Cl", "False"),
    ("CCCCOC(=O)COc1ccc(Cl)cc1Cl", "False"),
    ("O=C(O)/C=C/c1ccc(/C=C/C(=O)O)cc1", "False"),
    ("Oc1ccc2c(c1)OCO2", "False"),
]
